FYI, the data here is from patent US20150164907A1.

test system: SK-BR-3 breast cancer cells; assay: Proliferation of SK-BR-3 breast cancer cells, checkerboard design, Cell Titer Glo after 7 days; assay type: cell-based; settings: Homo sapiens, SK-BR-3, 168 h; in the absence of ATRA; 7 days; read-out: estimated IC50, proliferation of SK-BR-3 growth
PARAMETER: IC50 (nM)

>>> numeric_result("CS(=O)(=O)N1CCN(Cc2cc3nc(-c4cccc5[nH]ncc45)nc(N4CCOCC4)c3s2)CC1 [GDC-0941]")
126
>>> numeric_result("Cn1c(=O)n(-c2ccc(C(C)(C)C#N)cc2)c2c3cc(-c4cnc5ccccc5c4)ccc3ncc21 [NVP-BEZ235]")
145
